Value source: patent US20230271933A1

Test system: IL-2
RUN_DESCRIPTION: Stimulation of IL-2 secretion in anti-CD3-stimulated hPBMC (ELISA)
Assay type: cell-based, human
EXPERIMENTAL_CONDITIONS: Homo sapiens, anti-CD3 antibody, 72 hours
Threshold 20 nM: EC50 strictly smaller gives t, otherwise f.

CC(c1ccc(COc2cccc3c2CN([C@H]2CCC(=O)NC2=O)C3=O)cc1)N1CC2CC1CO2 (single isomer, unassigned): t
C[C@H](c1ccc(COc2cccc3c2CN([C@H]2CCC(=O)NC2=O)C3=O)cc1)N1CCN(c2ccncn2)CC1: t
C[C@H](c1ccc(COc2cccc3c2CN([C@H]2CCC(=O)NC2=O)C3=O)cc1)N1CCN(c2ccc(C#N)nc2)CC1: t

Threshold test, EC50 < 20 nM: C[C@@H](c1ccc(COc2cccc3c2CN(C2CCC(=O)NC2=O)C3=O)cc1)N1CCOCC1 (stereo partly shown)
t

Below 20 nM on EC50? Entry C[C@H](c1ccc(COc2cccc3c2CN([C@H]2CCC(=O)NC2=O)C3=O)cc1)N1CCN(c2ccc(C#N)cn2)CC1
t

For this molecule, is EC50 lower than 20 nM? C[C@H](c1ccc(COc2cccc3c2CN([C@H]2CCC(=O)NC2=O)C3=O)cc1)N1CCN(c2ncc(C#N)cc2F)CC1
f

Does this molecule meet the criterion EC50 < 20 nM? N#CC(c1ccc(COc2cccc3c2CN([C@H]2CCC(=O)NC2=O)C3=O)cc1)N1CCOCC1 (stereo partly shown)
f

====

A collection of molecules and their measured F
RUN_DESCRIPTION: In vivo pharmacokinetic experiment in rats
EXPERIMENTAL_CONDITIONS: PO 5 mpk vs IV 1 mpk, male Sprague-Dawley rats, n = 3
// unit must come after the numeric part

A selection of reference data follows.
C[C@H](c1ccc(COc2cccc3c2CN([C@H]2CCC(=O)NC2=O)C3=O)cc1)N1CCN(c2ccc(C#N)cc2F)CC1 [Compound 6]: 14%
C[C@H](c1ccc(COc2cccc3c2CN([C@H]2CCC(=O)NC2=O)C3=O)cc1)N1CCN(c2ncc(C#N)cc2F)CC1 [Compound 22]: 30%
C[C@H](c1ccc(COc2cccc3c2CN(C2CCC(=O)NC2=O)C3=O)cc1)N1CCOCC1 (stereo partly shown) [Compound 3]: 20%
C[C@@H](c1ccc(COc2cccc3c2CN([C@H]2CCC(=O)NC2=O)C3=O)cc1)N1CCN(c2ccc(C#N)cc2F)CC1 [Compound 7]: 19%
CC(C)(c1ccc(COc2cccc3c2CN([C@H]2CCC(=O)NC2=O)C3=O)cc1)N1CCOCC1 [Compound 5]: 4%
C[C@H](c1ccc(COc2cccc3c2CN([C@H]2CCC(=O)NC2=O)C3=O)cc1)N1CCN(c2ccc(C#N)nc2)CC1 [Compound 21]: 18%

Would you mind telling me what F value was observed for C[C@H](c1ccc(COc2cccc3c2CN([C@H]2CCC(=O)NC2=O)C3=O)cc1)N1CCN(c2ccc(C#N)cn2)CC1 [Compound 16] ?
27%

====

RUN_DESCRIPTION: In vivo pharmacokinetic experiment in rats
EXPERIMENTAL_CONDITIONS: rat, plasma, 5 mg/kg; PO 5 mpk, male Sprague-Dawley rats, n = 3
READOUT_NAME: AUC(0-t) (ng·h/mL)
Field: numeric (ng·h/mL). Do not append units.

Example compounds with recorded AUC(0-t):
C[C@H](c1ccc(COc2cccc3c2CN(C2CCC(=O)NC2=O)C3=O)cc1)N1CCOCC1 (stereo partly drawn): 270
C[C@H](c1ccc(COc2cccc3c2CN([C@H]2CCC(=O)NC2=O)C3=O)cc1)N1CCN(c2ccc(C#N)nc2)CC1: 1010

Fill blank: measured AUC(0-t) of the compound CC(C)(c1ccc(COc2cccc3c2CN([C@H]2CCC(=O)NC2=O)C3=O)cc1)N1CCOCC1 is ____.
8.8
